assayed_system: STK25 (human) (UniProt O00506)
Sequence (O00506 whole entry, looked up): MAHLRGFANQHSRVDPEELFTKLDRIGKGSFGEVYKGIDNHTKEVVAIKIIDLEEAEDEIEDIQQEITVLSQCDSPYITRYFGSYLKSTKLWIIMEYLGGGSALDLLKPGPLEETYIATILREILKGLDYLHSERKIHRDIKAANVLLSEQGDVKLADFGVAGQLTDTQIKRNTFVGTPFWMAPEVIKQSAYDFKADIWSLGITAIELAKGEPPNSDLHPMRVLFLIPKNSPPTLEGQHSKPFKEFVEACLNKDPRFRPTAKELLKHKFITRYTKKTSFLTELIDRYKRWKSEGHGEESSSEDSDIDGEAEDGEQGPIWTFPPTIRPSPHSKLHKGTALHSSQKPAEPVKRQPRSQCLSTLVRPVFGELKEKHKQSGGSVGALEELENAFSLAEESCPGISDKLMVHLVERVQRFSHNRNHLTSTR
method_summary: radiometric filter-binding kinase assay, Kinase HotSpot
experimental_parameters: compound 0.5 µM; ATP 10 µM
property_measured: residual activity (%)
One number for each entry, in %.

Some molecules with recorded residual activity:
chemical_string | unit_symbol | observed_value
CCN(CC)CCNC(=O)c1c(C)[nH]c(/C=C2\C(=O)Nc3ccc(Cl)cc32)c1C | % | 56.1
Oc1cccc(-c2nc(N3CCOCC3)c3oc4ncccc4c3n2)c1 | % | 93.4

Quick one: give me residual activity for each item below, same order please.
1. CCN(CC)CCNC(=O)c1c(C)[nH]c(/C=C2\C(=O)Nc3ccc(F)cc32)c1C
2. CCC(=O)Nc1ccc2ncnc(Nc3cccc(Br)c3)c2c1
3. O=C1NC(=O)/C(=C/c2ccc3c(c2)OC(F)(F)O3)S1
4. CCN(CC)C(=O)c1ccc(Nc2nc(OCC3CCCCC3)c3nc[nH]c3n2)cc1

OUT:
1. 76.1
2. 102
3. 95.7
4. 85.2

Quick one: give me residual activity for each item below, same order please.
1. CC(=O)c1ccc(N2CCOCC2)cc1O
2. N#C/C(=C(/N)Sc1ccc(N)cc1)c1ccccc1C(F)(F)F
3. Cc1[nH]c(/C=C2\C(=O)Nc3ccc(S(=O)(=O)N(C)c4cccc(Cl)c4)cc32)c(C)c1C(=O)N1CCN(C)CC1
4. c1ccc(-c2n[nH]c3c2oc2ccccc23)cc1
5. Cc1ccc(Nc2nccc(N(C)c3ccc4c(C)n(C)nc4c3)n2)cc1S(N)(=O)=O
6. Nc1ncnc2c1c(-c1ccc(Oc3ccccc3)cc1)cn2C1CCCC1
7. CCOC(=O)c1c(C)[nH]c(/C=C2\C(=O)Nc3ccccc32)c1C

OUT:
1: 90.9; 2: 114; 3: 91; 4: 89.6; 5: 97.3; 6: 113; 7: 98.5

Quick one: give me residual activity for each item below, same order please.
1. O=C1Nc2ccc(Cl)cc2/C1=C/c1cc(Cl)c(O)c(Cl)c1
2. COc1cc2ncnc(Nc3cccc(Cl)c3)c2cc1OC
3. Cc1ccc(NC2=CC(=O)c3sc(C)nc3C2=O)cc1
4. O=S(=O)(c1cccc2cnccc12)N1CCCNCC1
5. O=C(Nc1cccc(Nc2nccc(Nc3cccc(C(F)(F)F)c3)n2)c1)C1CC1
6. O=c1cc(N2CCOCC2)oc2c1ccc1ccccc12

OUT:
94
101
93.4
84.8
98.1
94.8

Quick one: give me residual activity for each item below, same order please.
1. Nc1ccc2ncnc(NCCc3ccc(Oc4ccccc4)cc3)c2c1
2. c1ccc(-c2n[nH]cc2-c2ccnc3ccccc23)nc1
3. CC[n+]1c(/C=C/N(C)c2ccccc2)n(-c2ccccc2)c2ccc(-c3nc4ccccc4s3)cc21
4. COc1ccc(COc2ccc(Cc3cnc(N)nc3N)cc2OC)cc1

OUT:
1: 116; 2: 96.9; 3: 96.5; 4: 97
